B1: Lysozyme C, P61626 (parent)
chain: MKALIVLGLVLLSVTVQGKVFERCELARTLKRLGMDGYRGISLANWMCLAKWESGYNTRATNYNAGDRSTDYGIFQINSRYWCNDGKTPGAVNACHLSCSALLQDNIADAVACAKRVVRDPQGIRAWVAWRNRCQNRDVRQYVQGCGV

Variants of: B1
Settings: Homo sapiens; pH 2.7; 64.9 °C; Thermal; DSC; glycine 0.05 M; reversible: yes; structure 1LZ1; whole UniProt chain shown
Think of 3 kcal/mol as a floor: if ddG of mutation (higher = less stable) stands on it or above, it is 1; beneath it, 0.

INSERT INTO results (residuestring, class) VALUES
  ('MKALIVLGLVLLSVTVQGKVFERCELARTLKRLGMDGYRGISLANWMCLAKWESGYNTRATNYNAGDRSTDYGAFQINSRYWCNDGKTPGAVNACHLSCSALLQDNIADAVACAKRVVRDPQGIRAWVAWRNRCQNRDVRQYVQGCGV', 1),
  ('MKALIVLGLVLLSVTVQGKVFERCELARTLKRLGMDGYRGISLANWMCLAKWESGYNTRATNYNAGDRSTDYGIFQINSRYWCNDGKTPGAVNACHLSCSALLQDNAADAVACAKRVVRDPQGIRAWVAWRNRCQNRDVRQYVQGCGV', 0),
  ('MKALIVLGLVLLSVTVQGKVFERCELARTLKRLGMDGYRGISLANWMCLAKWESGYNTRATNYNAGDRSTDYGIFQINSRYWCNDGKTPGAVNACHLSCSALLQDNIADAVACAKRVVRDPQGARAWVAWRNRCQNRDVRQYVQGCGV', 0),
  ('MKALIVLGLVLLSVTVQGKVFERCELARTLKRLGMDGYRGISLANWMCLAKWESGYNTRATNYNAGDRSTDYGIFQANSRYWCNDGKTPGAVNACHLSCSALLQDNIADAVACAKRVVRDPQGIRAWVAWRNRCQNRDVRQYVQGCGV', 0),
  ('MKALIVLGLVLLSVTVQGKVFERCELARTLKRLGMDGYRGISLANWMCLAKWESGYNTRATNYNAGDRSTDYGIFQGNSRYWCNDGKTPGAVNACHLSCSALLQDNIADAVACAKRVVRDPQGIRAWVAWRNRCQNRDVRQYVQGCGV', 1),
  ('MKALIVLGLVLLSVTVQGKVFERCELARTLKRLGMDGYRGASLANWMCLAKWESGYNTRATNYNAGDRSTDYGIFQINSRYWCNDGKTPGAVNACHLSCSALLQDNIADAVACAKRVVRDPQGIRAWVAWRNRCQNRDVRQYVQGCGV', 0);
